- system: acetylcholine receptor
- assay details: SPR, receptor immobilized, peptide 10 uM
Binding affinity (RU) values by entry
Respond numerically; units are RU and should not be typed.

Field: example entries. Status: answers known.
1) RTTER [5mer-1085] :: 14
2) RYMERK [6mer-2-814] :: 28
3) RTSIRK [6mer-2-891] :: 28
4) RKTPK [5mer-753] :: 30
5) RCPKKR [6mer-2-887] :: 18

# query: Binding affinity (RU) of entry KYWEKK [6mer-2-867]
32

And what about the binder RFHFK [5mer-767] ?
12
